- test.target: T1, macaca fascicularis (mf) PRLR.mmh (soluble monomeric monkey PRLR) (Macaca fascicularis)
- T1 construct: called soluble monomeric PRLR protein
- T1 chain: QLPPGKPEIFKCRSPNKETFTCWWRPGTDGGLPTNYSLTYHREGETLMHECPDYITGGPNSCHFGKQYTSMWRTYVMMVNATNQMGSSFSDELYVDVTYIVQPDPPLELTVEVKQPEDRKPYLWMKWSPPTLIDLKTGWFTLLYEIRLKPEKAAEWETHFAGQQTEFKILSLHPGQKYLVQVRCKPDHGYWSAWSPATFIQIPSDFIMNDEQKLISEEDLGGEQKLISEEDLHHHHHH
- assay.explanation: SPR Biacore, 25 C, mAb capture
- Experimental: Measurements were conducted on a T200 Biacore instrument. Kinetic association (kₐ) and dissociation (kd) rate constants were determined by processing and fitting the data to a 1:1 binding model using Scrubber 2.0 curve fitting software.
Would you mind telling me the reported kon of each entry?
Numeric only. Scale: M⁻¹ s⁻¹

Short answer for H1H6958N2 (antibody, human IgG1, V domains shown, Tested with human IgG1 Fc (H1H); also called H2M6958N2) VH: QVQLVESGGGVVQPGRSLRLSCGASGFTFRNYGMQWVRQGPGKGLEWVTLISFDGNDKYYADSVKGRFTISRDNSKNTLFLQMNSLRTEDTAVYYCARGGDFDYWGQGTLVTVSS VL: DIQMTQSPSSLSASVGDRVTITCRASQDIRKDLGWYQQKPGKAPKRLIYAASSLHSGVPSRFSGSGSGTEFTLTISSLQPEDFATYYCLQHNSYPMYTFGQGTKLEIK : kon was 195000

Short answer for H1H6801P (antibody, human IgG1, V domains shown, Human IgG1 Fc (H1H)) VH: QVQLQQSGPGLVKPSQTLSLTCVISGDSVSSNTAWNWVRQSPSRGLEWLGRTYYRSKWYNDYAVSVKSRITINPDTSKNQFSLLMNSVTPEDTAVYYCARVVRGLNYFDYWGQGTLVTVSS VL: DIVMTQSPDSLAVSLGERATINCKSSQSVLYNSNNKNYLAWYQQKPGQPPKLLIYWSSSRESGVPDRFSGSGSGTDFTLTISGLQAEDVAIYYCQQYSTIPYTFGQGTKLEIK : kon was 657000

Short answer for H1H6804P (antibody, human IgG1, V domains shown, Human IgG1 Fc (H1H)) VH: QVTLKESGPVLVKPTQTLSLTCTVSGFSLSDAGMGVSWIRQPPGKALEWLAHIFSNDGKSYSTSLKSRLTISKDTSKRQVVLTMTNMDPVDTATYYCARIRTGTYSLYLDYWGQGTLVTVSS VL: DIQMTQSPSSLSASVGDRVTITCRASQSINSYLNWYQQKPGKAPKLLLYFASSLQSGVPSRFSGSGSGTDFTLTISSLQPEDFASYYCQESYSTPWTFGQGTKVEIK : kon was 331000
